The reported numbers originate from patent US20030186423A1.

# Test system: D-amidase
# test_protocol: Enzyme test for acid amides, activity by determination of ammonium ions with glutamate dehydrogenase
# Format: biochemical, Variovorax paradoxus
# conditions_used: substrate 40 mM; DL-Tle-NH2 = 1
property_name: Activity with respect to Tle-NH2

Solved cases below.
compound	property_name	measured_value
CC(=O)CC(N)=O [Acetoacetamide]	Activity with respect to Tle-NH2	130
CC(C)C(N)=O [Isobutyramide]	Activity with respect to Tle-NH2	33
CCC(N)=O [Propionamide]	Activity with respect to Tle-NH2	26

(1) NC(=O)CC(N)=O [Malonic acid diamide]
(2) NC(=O)c1cccnc1 [Nicotinamide]
[in] Lab notebook, comparison: 1 versus 2 , higher Activity with respect to Tle-NH2 goes to which? Record your answer as the label of the chosen record.
[out] 2
